Kindly state composite z-score for each of the entries shown.
Test system: Wnt5a (protein binding on small-molecule microarray)
assay.summary: Wnt5a binders on small-molecule microarray, primary screen, biophysical, 635/667 nm fluorescence (AID 1142);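 also: fluorescence read at 667 nm with signal to noise per printed feature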
condition.details: 635 nm fluorescence, higher = more signal
// no unit string in output, number only

Sample COC(=O)[C@@]1(Cc2ccccc2)[C@H]2c3cc(C(=O)N4CCCC4)n(Cc4ccc(S(C)(=O)=O)cc4)c3C[C@H]2CN1C(=O)c1ccccc1 ; composite z-score observed: -0.0831

Sample CCCCCN1CC=CC23O[C@@H]4/C=C\CCC(C)OC(=O)C4[C@H]2C(=O)N(C(C)CO)[C@@H]3C1=O (some centres undefined) ; composite z-score observed: -0.105

Sample CC(=O)NCCCC[C@@H]1NC(=O)[C@@H]2C[C@H](C(=O)NCCCCCNC(=O)CS)[C@H](c3cccc(OCCO)c3)N2C1=O ; composite z-score observed: -0.149

Sample CC(CO)N1C(=O)[C@@H]2C3C(=O)OCCC/C=C\[C@H]3OC23C=CCN(C(C)(C)C)C(=O)[C@@H]13 (some centres undefined) ; composite z-score observed: -0.221

* * *

target.desc: Follistatin (Homo sapiens)
assay.summary: follistatin binders on small-molecule microarrays, primary screen, biochemical, small-molecule microarray, 635/667 nm fluorescence (AID 1132)
condition.details: FST binding, 635 nm fluorescence, higher = more signal
readout.label: composite z-score
// no unit string in output, number only

composite z-score value, target or system Follistatin (Homo sapiens), for NC(=O)NCC#Cc1ccc2c(c1)[C@]1(C(=O)N2)[C@H](c2ccccc2OCCO)N2[C@H](c3ccccc3)[C@H](c3ccccc3)OC(=O)[C@H]2[C@@H]1C(=O)Nc1nc2ccccc2s1 : 0.759

composite z-score value, target or system Follistatin (Homo sapiens), for CO[C@H]1O[C@H](CO)[C@@H](OC(=O)Nc2ccc(Oc3ccccc3)cc2)[C@H](OC(=O)Nc2ccc3c(c2)OCO3)[C@H]1OC(=O)Nc1ccc2c(c1)OCO2 : 1.34

composite z-score value, target or system Follistatin (Homo sapiens), for CC(C)N1C(=O)c2ccccc2[C@](C)(C(=O)NCCN2CCOCC2)[C@@H]1c1ccc(CO)cc1 : 0.897

composite z-score value, target or system Follistatin (Homo sapiens), for COCCOC(=O)N1C(=O)[C@@]2(c3cc(C#CCNC(N)=O)ccc31)[C@H](C(=O)N1CCN(c3ncccn3)CC1)[C@H]1C(=O)O[C@H](c3ccccc3)[C@H](c3ccccc3)N1[C@@H]2c1ccc(OCCO)cc1 : 1.12

composite z-score value, target or system Follistatin (Homo sapiens), for COc1cc2c(cc1OC)CN(C(=O)[C@H]1[C@@H]3C(=O)O[C@@H](c4ccccc4)[C@@H](c4ccccc4)N3[C@@H](c3ccc(O)cc3)[C@]13C(=O)Nc1ccccc13)CC2 : 0.354

composite z-score value, target or system Follistatin (Homo sapiens), for CN1C(=O)C2C=CC(C(O)c3ccc([N+](=O)[O-])cc3)N(N3CCCCC3)C2C1=O (stereo unspecified) : 1.12

* * *

target.desc: Streptavidin (Streptomyces avidinii) (UniProt P22629)
Sequence (P22629 whole entry, looked up): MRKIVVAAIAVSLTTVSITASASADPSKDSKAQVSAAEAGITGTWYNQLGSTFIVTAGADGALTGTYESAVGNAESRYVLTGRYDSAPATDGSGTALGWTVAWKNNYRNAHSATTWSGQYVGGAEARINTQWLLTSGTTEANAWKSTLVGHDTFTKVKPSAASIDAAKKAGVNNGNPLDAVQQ
assay.summary: streptavidin binders on small-molecule microarray, primary screen, artefact control for SMM compound annotation, biophysical, 635/667 nm fluorescence (AID 1147);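 also: signal reflects streptavidin binding to arrayed compounds as a control protein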
condition.details: streptavidin binding, higher = more signal
readout.label: composite z-score
// no unit string in output, number only

composite z-score value, target or system Streptavidin (Streptomyces avidinii) (UniProt P22629), for CC(C)C[C@@H]1NC(=O)[C@H](C(C)C)NC(=O)[C@@]23C(=O)N[C@@H](Cc4ccccc4)C2[C@H](C)[C@@]2(C)O[C@H]2C3/C=C/CC/C=C/CNC1=O (stereo partly specified) : 0.186

composite z-score value, target or system Streptavidin (Streptomyces avidinii) (UniProt P22629), for C[N+](C)(C)CCCCNC(=O)[C@@H]1C[C@@H]2C(=O)N[C@@H](Cc3ccccc3)C(=O)N2[C@@H]1c1cccc(OCCO)c1 : -1.02

composite z-score value, target or system Streptavidin (Streptomyces avidinii) (UniProt P22629), for CO[C@H]1O[C@H](CO)[C@@H](OC(=O)Nc2ccc(C(F)(F)F)cc2)[C@H](OC(=O)Nc2ccc3c(c2)OCO3)[C@@H]1OC(=O)Nc1ccc2c(c1)OCO2 : 0.273

composite z-score value, target or system Streptavidin (Streptomyces avidinii) (UniProt P22629), for COc1ccc([Si](C)(C)[C@H]2[C@H](CC(=O)N3Cc4ccccc4C[C@H]3CO)O[C@@]3(C(=O)N(Cc4cccc(N5CCC5=O)c4)c4ccccc43)[C@@H]2C)cc1 : -0.0369

composite z-score value, target or system Streptavidin (Streptomyces avidinii) (UniProt P22629), for O=C1N[C@@H](Cc2ccccc2)C(=O)N2[C@@H]1C[C@@H](C(=O)O)[C@H]2c1cccc(OCCO)c1 : 0.0555

composite z-score value, target or system Streptavidin (Streptomyces avidinii) (UniProt P22629), for C=CCNC(=O)[C@@H]1[C@H]2C(=O)O[C@H](c3ccccc3)[C@H](c3ccccc3)N2[C@H](c2ccc(O)cc2)[C@@]12C(=O)N(C(=O)OCCOC)c1ccc(C#CCNC(N)=O)cc12 : 0.61
